src = ChEMBL document CHEMBL3351379

organism: Homo sapiens; assay: Metabolic stability in human assessed per mg protein; format: ADME
parameter measured: Stability (µL/min/mg)

P. Cc1nc(-c2ccc(N3CCN(C)CC3)cc2)nc2c1CCN2CCCN1CCCC1
Q. Cc1nc(-c2ccc(N3CCN(C)CC3)cc2)nc(NCCN2CCOCC2)c1C
Req: Field: lower recorded Stability (choose P or Q ) Your choice should be expressed through its label.
Resp: P
(P: 35 µL/min/mg, Q: 69 µL/min/mg)

* * *

assay: Aqueous solubility of the compound at pH 7.4; assay type: physicochemical
parameter measured: solubility (µg/mL)

1. COc1cc2nc(-c3ccc(N4CCN(C)CC4)cc3)nc(NCCN3CCOCC3)c2cc1OC
2. CN1CCN(c2ccc(-c3ncc4c(n3)N(CCCN3CCOCC3)CC4)cc2)CC1
Req: Field: lower recorded solubility (choose 1 or 2 ) Your choice should be expressed through its label.
Resp: 1
(1: 120 µg/mL, 2: 1100 µg/mL)

* * *

tested on: PBMC; assay: Inhibition of CpG-induced IL-6 production in human PBMC after 24 hrs by ELISA; format: functional, cell-based
parameter measured: IC50 (nM)
Write it as a number; the unit nM goes unstated.

Req: Given the molecule OCCN1CCN(c2ccc(-c3ncc4c(n3)N(CCCN3CCOCC3)CC4)cc2)CC1 , what is its reported IC50?
Resp: 244

* * *

Target: Toll-like receptor 9 (Homo sapiens, UniProt Q9NR96)
Sequence (Q9NR96 whole entry): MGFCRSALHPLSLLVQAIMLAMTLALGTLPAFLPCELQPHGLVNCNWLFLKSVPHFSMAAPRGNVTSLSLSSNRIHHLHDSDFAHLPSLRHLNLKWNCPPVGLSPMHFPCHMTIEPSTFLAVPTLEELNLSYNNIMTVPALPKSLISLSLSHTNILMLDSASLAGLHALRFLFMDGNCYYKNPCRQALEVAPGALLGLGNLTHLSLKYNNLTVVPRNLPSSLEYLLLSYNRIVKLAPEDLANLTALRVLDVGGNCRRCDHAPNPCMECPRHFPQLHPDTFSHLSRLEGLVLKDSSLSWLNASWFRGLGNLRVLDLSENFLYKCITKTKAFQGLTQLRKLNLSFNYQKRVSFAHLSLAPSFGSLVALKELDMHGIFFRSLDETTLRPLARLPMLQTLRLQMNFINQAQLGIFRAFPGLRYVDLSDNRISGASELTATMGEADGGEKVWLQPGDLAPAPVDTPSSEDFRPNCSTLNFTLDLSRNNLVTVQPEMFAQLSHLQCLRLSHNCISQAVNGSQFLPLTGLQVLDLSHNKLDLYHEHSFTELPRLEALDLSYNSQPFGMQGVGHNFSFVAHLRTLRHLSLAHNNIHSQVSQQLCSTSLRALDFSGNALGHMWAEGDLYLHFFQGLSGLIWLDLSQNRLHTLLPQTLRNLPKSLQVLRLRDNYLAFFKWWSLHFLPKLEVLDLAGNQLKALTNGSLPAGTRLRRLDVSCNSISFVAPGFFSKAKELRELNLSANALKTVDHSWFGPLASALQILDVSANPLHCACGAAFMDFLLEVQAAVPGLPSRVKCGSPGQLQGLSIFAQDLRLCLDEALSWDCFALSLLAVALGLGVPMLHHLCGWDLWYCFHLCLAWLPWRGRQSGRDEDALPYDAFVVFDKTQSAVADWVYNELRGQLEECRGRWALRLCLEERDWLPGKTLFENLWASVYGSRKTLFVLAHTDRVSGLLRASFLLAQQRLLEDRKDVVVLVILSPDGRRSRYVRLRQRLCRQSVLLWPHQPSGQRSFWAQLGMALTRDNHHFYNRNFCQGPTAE
Assay: Antagonist activity at human TLR9 transfected in HEK293 cells after 6 hrs by NF-kappaB luciferase reporter assay
pIC50: −log10 of the molar value.
parameter measured: pIC50

INSERT INTO measurements (given_smiles, parameter_measured, result) VALUES
  ('Cc1nc(-c2ccc(N3CCN(C)CC3)cc2)nc2c1CCN2CCCN1CCCC1', 'pIC50', 8.46),
  ('Cc1cnc(-c2ccc(N3CCN(C)CC3)cc2)nc1NCCN1CCOCC1', 'pIC50', 6.92),
  ('CN1CCN(c2ccc(-c3nc4c(c(NCCN5CCOCC5)n3)CCCC4)cc2)CC1', 'pIC50', 7.57),
  ('COCCN1CCN(c2ccc(-c3ncc4c(n3)N(CCCN3CCOCC3)CC4)cc2)CC1', 'pIC50', 7.55),
  ('CN1CCN(c2ccc(-c3nc(Cl)c4c(n3)N(CCCN3CCCC3)CC4)cc2)CC1', 'pIC50', 7.08);

a. COc1cc2nc(-c3ccc(N4CCN(C)CC4)cc3)nc(NCCN3CCOCC3)c2cc1OC
b. CN1CCN(c2ccc(-c3ncc4c(n3)N(CCCCN3CCOCC3)CC4)cc2)CC1
Req: Field: lower recorded pIC50 (choose a or b ) Your choice should be expressed through its label.
Resp: b
(b: 7.96, a: 8.34)

I. COc1nc(-c2ccc(N3CCN(C)CC3)cc2)nc2c1CCN2CCCN1CCCC1
II. CN1CCN(c2ccccc2-c2ncc3c(n2)N(CCCN2CCOCC2)CC3)CC1
III. Cc1nc(-c2ccc(N3CCN(C)CC3)cc2)nc2c1CCN2CCN1CCOCC1
IV. CN1CCN(c2ccc(-c3nccc(NCCN4CCOCC4)n3)cc2)CC1
Req: Rank descending by pIC50. Put the labels in the order asked and list them.
Resp: III, II, I, IV

P. OCCN1CCN(c2ccc(-c3ncc4c(n3)N(CCCN3CCOCC3)CC4)cc2)CC1
Q. CN1CCN(c2ccc(-c3nc4c(c(NCCN5CCOCC5)n3)COCC4)cc2)CC1
R. CN1CCN(c2ccc(-c3nc(N(C)C)c4c(n3)N(CCCN3CCCC3)CC4)cc2)CC1
Req: Rank descending by pIC50. Put the labels in the order asked and list them.
Resp: P, R, Q
(P: 7.89, R: 7.14, Q: 6.72)

I. CN1CCN(c2ccc(-c3ncc4c(n3)N(CCCN3CCCC3)CC4)cc2)CC1
II. CN1CCN(c2cccc(-c3ncc4c(n3)N(CCCN3CCOCC3)CC4)c2)CC1
Req: I need your help: which of the pair I , II has higher pIC50? Your choice should be expressed through its label.
Resp: I
